Target: T1, RBFOX1 RRM (Homo sapiens, UniProt Q9NWB1 109-208)
T1 sequence: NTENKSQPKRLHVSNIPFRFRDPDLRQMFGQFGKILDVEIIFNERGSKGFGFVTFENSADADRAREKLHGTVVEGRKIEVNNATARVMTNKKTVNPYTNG
Experiment: EMSA; HiTS-Eq, 1 nM pool, 10 min; buffer printed only for the single-RNA assays: 10 mM Tris pH 7.5, 150 mM NaCl, 3.4 mM EDTA, 0.001% NP-40, 30 C
Conditions: tags: His6 N-terminal (pET28a); label: 5' 32P
Whole data set: some 16,000 sequences, median “ka relative to ugcaugu” near 0.0091, cut for the highest 2% near 0.032. The sample holds the highest values, similar sequences and a random draw of the others, so the mix is not that of the screen.
measuredParameter: binding signal

GGGAACU (DNA:RNA) RNA: GGGAGACCGGAAUUCAGAUUGUCCGGGAACUUUAAAUCCCGUCGUAGCCACCA DNA 1: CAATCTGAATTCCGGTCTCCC DNA 2: TGGTGGCTACGACGGGATT    0.0404 KA relative to UGCAUGU
GGAACUU (DNA:RNA) RNA: GGGAGACCGGAAUUCAGAUUGUCCGGAACUUUUAAAUCCCGUCGUAGCCACCA DNA 1: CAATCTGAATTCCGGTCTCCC DNA 2: TGGTGGCTACGACGGGATT    0.0138 KA relative to UGCAUGU
CGGAAGC (DNA:RNA) RNA: GGGAGACCGGAAUUCAGAUUGUCCCGGAAGCUUAAAUCCCGUCGUAGCCACCA DNA 1: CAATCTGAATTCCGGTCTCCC DNA 2: TGGTGGCTACGACGGGATT    0.0209 KA relative to UGCAUGU

Let's switch to this binder now.
In: Give the reported binding signal for this binder. GGGGAGC (DNA:RNA) RNA: GGGAGACCGGAAUUCAGAUUGUCCGGGGAGCUUAAAUCCCGUCGUAGCCACCA DNA 1: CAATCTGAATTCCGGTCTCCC DNA 2: TGGTGGCTACGACGGGATT
Out: 0.0326 KA relative to UGCAUGU
